Every entry's value here was drawn from ChEMBL document CHEMBL1143500.

- target_under_test: Thyroid hormone receptor (Homo sapiens, UniProt P10827+P10828)
- method_notes: Agonist activity towards thyroid hormone receptor expressed in human HepG2 cells
# note: exactly 20 nM is not below, so it is rule not met; use rule met for EC50 strictly under it

INSERT INTO measurements (sample_smiles, group_label) VALUES
  ('CC(C)c1c[nH]c2ccc(Oc3c(C(F)(F)F)cc(/C=C/C(=O)O)cc3C(F)(F)F)cc12', 'rule met'),
  ('CCOC(=O)C(=O)Nc1cc(Cl)c(Oc2ccc3[nH]ccc3c2)c(Cl)c1', 'rule met'),
  ('CCOC(=O)C(=O)Nc1cc(C(F)(F)F)c(Oc2ccc3[nH]ccc3c2)c(C(F)(F)F)c1', 'rule not met'),
  ('CCOC(=O)CC(=O)Nc1cc(C)c(Oc2ccc3[nH]cc(C(C)C)c3c2)c(Cl)c1', 'rule met'),
  ('CCOC(=O)C(=O)Nc1cc(C(F)(F)F)c(Oc2ccc3[nH]cc(-c4ccc(F)cc4)c3c2)c(C(F)(F)F)c1', 'rule not met'),
  ('COC(=O)C(=O)Nc1cc(Cl)c(Oc2ccc3[nH]cc(C(C)C)c3c2)c(Cl)c1', 'rule met'),
  ('CCOC(=O)C(=O)Nc1cc(C(F)(F)F)c(Oc2ccc3[nH]cc(C(C)C)c3c2)c(C(F)(F)F)c1', 'rule met'),
  ('CCOC(=O)C(=O)Nc1cc(C(F)(F)F)c(Oc2ccc3[nH]cc(Oc4ccc(F)cc4)c3c2)c(C(F)(F)F)c1', 'rule not met');

----------
- target_under_test: Thyroid hormone receptor (Homo sapiens, UniProt P10827+P10828)
- method_notes: Agonist activity towards thyroid hormone receptor expressed in human HepG2 cells
pEC50: −log10 of the molar value.
readout: pEC50

INSERT INTO assay_data (sample_smiles, number) VALUES
  ('C=Cc1cc(NC(=O)C(=O)OCC)cc(C=C)c1Oc1ccc2[nH]cc(C(C)C)c2c1', 8.11),
  ('CCOC(=O)C(=O)Nc1cc(Br)c(Oc2ccc3[nH]cc(C(C)C)c3c2)c(Br)c1', 8.92),
  ('CCOC(=O)C(=O)Nc1cc(C)c(Oc2ccc3[nH]cc(C(C)C)c3c2)c(Cl)c1', 8.40),
  ('CCCCCc1n[nH]c2ccc(Oc3c(C)cc(NC(=O)C(=O)OCC)cc3C)cc12', 8.10),
  ('CCOC(=O)C(=O)Nc1cc(C)c(Oc2ccc3[nH]cc(C(C)C)c3c2)c(C)c1', 8.40),
  ('CCOC(=O)C(=O)Nc1cc(C)c(Cc2ccc3[nH]cc(C(C)C)c3c2)c(C)c1', 7.74);
